Data provenance is ChEMBL document CHEMBL3988442.

Tested on: Wolbachia pipientis
Assay: Anti-Wolbachia Cell-Based Screen
Type: functional
Set-up: scale not given: in the data most compounds retested in dose-response had high values
Details: 5 µM
Out of some 48,000 compounds screened, about 13,000 (27%) showed an effect of 50% or more. Some of the results follow.
# maps each entry to its Percent Effect

// `Cc1cc(C(=O)N[C@H]2CC[C@@]3(CCC(=O)N3C)CC2)no1` : Percent Effect value = -27.57%

// Percent Effect value for Cc1cccc(C(C(=O)N2CC(c3ccncc3)C2)N(C)C)c1 (stereo unspecified) : -5.316%

The reported Percent Effect of the molecule CC(C)Cn1c2c(ccc1=O)CC(N)CC2 (stereo unspecified) was -23.17%

According to the records, this molecule CC(C)Cn1c2c(ccc1=O)CC(NC(=O)c1ccsc1)CC2 (stereo unspecified) displays Percent Effect of -16.59%

Reported Percent Effect of CS(=O)(=O)Cc1cccc(C(=O)NCC2Cc3ccccc3O2)c1 (stereo unspecified) : -6.812%

Percent Effect reported for this molecule CC(=O)NCC(=O)NC1CCc2c(ccc(=O)n2CC2CC2)C1 (stereo unspecified) : -21.87%

Next:
Percent Effect reading for Cc1cc(C(=O)NC2CCc3c(ccc(=O)n3CC3CC3)C2)no1 (stereo unspecified) : 117.2%

###

Tested on: Wolbachia pipientis
Test: Anti-Wolbachia Cell-Based Screen
Format: functional
Design: scale not given: in the data most compounds retested in dose-response had high values
Conditions: 5 µM
The whole screen tested about 48,000 compounds, of which about 13,000 (27%) showed an effect of 50% or more. Some of the results follow.
resultType: Percent Effect (%)
Number in %, nothing else.

Please review the following examples before continuing.
// Percent Effect value for `NC(=O)CN1CC2(CCC1=O)CCN(Cc1cc(F)cc(F)c1)CC2` : 6.606

Looking up Cc1nnc(SCC(=O)NCC(c2ccccc2Cl)N(C)C)s1 (configuration not stated) , I see its Percent Effect listed as -0.8898

Next:
Per the records, this molecule ( `CS(=O)(=O)N1CCOCC12CCN(Cc1ccoc1)CC2` ) has Percent Effect equal to 122

Reported Percent Effect of COc1ccc(F)cc1CN1CCC(O)(CN2CCCCC2)C1 (configuration not stated) : 8.228

Looking up CN(C)CC1CSCCCN1C(=O)c1ccsc1 (configuration not stated) , I found its Percent Effect recorded as 106.6

###

System: Wolbachia pipientis
Test: Anti-Wolbachia Cell-Based Screen
Assay type: functional
Parameters: scale not given: in the data most compounds retested in dose-response had high values
Settings: 5 µM
About 13,000 (27%) of roughly 48,000 compounds showed an effect of 50% or more. Some of the results follow.
Measured Percent Effect, listed per entry for reference.
Give the quantity in %, number only.

Here's what some known entries look like.
GET /value?item= O=C(Nc1ccccc1)C1CCCN(c2cc(-n3cncn3)ncn2)C1 (stereo unspecified) &field=Percent Effect returns -3.274

Value of Percent Effect reported for the compound `Cc1noc(C[C@@H]2COC[C@H]3CN(S(C)(=O)=O)C[C@@H]23)n1` is -1.05

Please fill in: Percent Effect reported for `CSc1ncc(C(=O)N2C[C@H]3CC[C@@H]2CN(S(=O)(=O)N(C)C)C3)cn1` = -20.31

Consider `COc1cc(N2C[C@@H]3COC[C@@H](Cc4nnc(C)o4)[C@@H]3C2)ncn1` . Its measured Percent Effect is 80.24

Reported Percent Effect ( `CCOC(=O)c1sc(NC(=O)CN(C)S(C)(=O)=O)c(C#N)c1C` ) = 0.9217

***
Lab book: Percent Effect of CNC(=O)c1n[nH]c2c1C(c1cccc3c1OC(C)(C)C3)CC(=O)N2 (stereo unspecified) noted as 27.3

###

Tested on: Wolbachia pipientis
Experiment: Anti-Wolbachia Cell-Based Screen
Assay type: functional
Parameters: scale not given: in the data most compounds retested in dose-response had high values
Conditions: 5 µM
Hit rate of the full screen: of about 48,000 compounds, about 13,000 (27%) showed an effect of 50% or more. This is one part of the list.
# Percent Effect annotations
Dear colleague, please return just the value in %, with no unit written.

Noted for `CC(C)(C)NC(=O)c1cnc(C(C)(C)C)s1` : its Percent Effect reads 6.371

Record CN1CCCC(N2CCN(c3nc4ccccn4c3C#N)CC2)C1 (stereo unspecified) , field Percent Effect: 6.11

// Percent Effect value for `Cc1ncc(C(=O)NCCNc2ncccn2)s1` : 110.1

Continuing:
So, `Cc1ccc(-c2ncc(C(=O)NCCNC(=O)C(C)C)s2)c(C)c1` ? Its Percent Effect was -1.458

get_value(item= `CS(=O)(=O)NCCNC(=O)c1cnc(-c2ccccc2)nc1` , readout=Percent Effect) returns 5.162

For reference, reported Percent Effect for `CC(C)(C)c1ncc(C(=O)NCCS(N)(=O)=O)s1` stands at -2.112

###

Test system: Wolbachia pipientis
Assay: Anti-Wolbachia Cell-Based Screen
Type: functional
Design: scale not given: in the data most compounds retested in dose-response had high values
Conditions: 5 µM
About 13,000 (27%) of roughly 48,000 compounds showed an effect of 50% or more. The list shows a part of the results.
resultType: Percent Effect (%)
Your answer is read as %, so omit the unit and give the number.

Guide cases for Percent Effect, answers given:
So, Fc1cccc(-n2ccc(CN3CCCCC3Cn3cncn3)n2)c1 (configuration not stated) ? Its Percent Effect was -7.7

Query CC(C)(C)C(C#N)NC(=O)c1ccc(Oc2cccnc2)cc1 (configuration not stated) yields Percent Effect of 2.212

The reported Percent Effect of the compound `Cn1cnnc1CNC(=O)Nc1ccc(OC2CCC2)c(F)c1` was 19.99

Record CCC1CCCCN1S(=O)(=O)c1c(C)noc1C (configuration not stated) , field Percent Effect: -6.559

What the record says about CCOc1ncccc1CNC(=O)N1CCCC1c1cc(C)no1 (configuration not stated) : Percent Effect is 3.544

More entries:
Entry Cc1ccnc(C2(C)CCCN2S(=O)(=O)c2cccnc2)n1 (configuration not stated) — recorded Percent Effect = 132.4

Percent Effect in this record for O=C1N(C2CCCCC2)CCCC12CCN(S(=O)(=O)c1cccnc1)C2 (configuration not stated) : 14.14

Lab book: Percent Effect of `O=C(CCc1ccc(C(F)(F)F)cc1)N1CCCS1(=O)=O` noted as -13.79

Notebook: Cc1cccc(C(C)NCC2CCS(=O)(=O)CC2)c1 (configuration not stated) , Percent Effect read as -4.903

Record `O=C(Cn1cc(C(=O)O)ccc1=O)Nc1cc(F)ccc1F` , field Percent Effect: -7.497

// N#Cc1ccc(F)c(CN2CCCC2Cn2cccn2)c1 (configuration not stated) : Percent Effect value = -3.171

Measured Percent Effect, CCCN1CCCC2(CCN(S(=O)(=O)c3cccnc3)C2)C1=O (configuration not stated) : 3.088

###

Tested on: Wolbachia pipientis
Assay: Anti-Wolbachia Cell-Based Screen
Assay type: functional
Set-up: scale not given: in the data most compounds retested in dose-response had high values
Settings: 5 µM
Hit rate of the full screen: of about 48,000 compounds, about 13,000 (27%) showed an effect of 50% or more. This is one part of the list.
// Percent Effect lookup, one value per entry
Write the value in % as a bare number.

The cases that follow already have their Percent Effect on record.
`C1CN(CC2CCOCC2)Cc2c(COCC3CC3)nnn2C1.O=C(O)C(F)(F)F` has a reported Percent Effect of 2.92

GET /value?item= `O=C(O)C(F)(F)F.c1cnc(NCc2nnn3c2CN(CC2CC2)CCC3)nc1` &field=Percent Effect returns 97.82

Notebook: `CN(C)C(=O)NCc1nnn2c1CN(CC1CCOCC1)CCC2.O=C(O)C(F)(F)F` , Percent Effect read as 4.127

`O=C(c1ccnnc1)N1CCCn2nnc(COCC3CC3)c2C1` yielded Percent Effect of -17.91

Given item Cc1ccc2c(c1)OC1(NC2=O)C(=O)N(C)c2ccccc21 (stereo not drawn) , the value recorded as its Percent Effect is 2.541

Item: COc1ccccc1Oc1ncccc1CNC(=O)C(O)C(F)(F)F (stereo not drawn) | Percent Effect: -1.797

Value of measured Percent Effect for the entry `CCn1nc2c(cc1=O)CN(Cc1nnc(C3CC3)o1)CC2` : 14.78

Sure, the documented Percent Effect for `Cc1nc(CN2CCN(C)C(=O)C23CCN(C(C)C)CC3)cs1.O=C(O)C(F)(F)F` is 114.4

Further cases:
Percent Effect recorded for this molecule, `c1cc(CNCc2ccnc(N3CCCC3)c2)c2c(c1)OCO2` , is -29.77

# Percent Effect (molecule: `O=C(CC1CC1)N1CCCn2nnc(CNc3ncccn3)c2C1` ) is 92.45

Form: molecule = Cc1cccc(C)c1Oc1ncccc1CNC(=O)C1(C)CCCNC1 (stereo not drawn) ; Percent Effect = 9.373

Per the records, this molecule ( `CC(=O)N[C@@H](C)C(=O)NCc1cccnc1Oc1ccccc1F` ) has Percent Effect equal to -9.866

For reference, reported Percent Effect for `CN(Cc1nccn1C)S(=O)(=O)Cc1cccc(C#N)c1` stands at 6.063

Item: `O=C(c1ccncc1)N1CCCn2nnc(Cn3cccn3)c2C1` | Percent Effect: 4.632
